Recorded values, source patent US20220226342A1.

System: HCC 36-3
Experiment: IC50 in PDO line
Format: cell-based
Settings: Homo sapiens
readout: IC50

q: # lookup: IC50 of COC(=O)C[C@](O)(CCCC(C)(C)O)C(=O)O[C@@H]1C(OC)=C[C@]23CCCN2CCc2cc4c(cc2[C@H]13)OCO4 [omacetaxine, omacetaxine mepusuccinate]
a: 0.0807 µM

---

Tested on: HCC 25-3
Assay: IC50 in PDO line
Format: cell-based
Conditions: Homo sapiens
readout: pIC50
Give bare numbers, as −log10 of the molar value.

q: # lookup: pIC50 of COC(=O)C[C@](O)(CCCC(C)(C)O)C(=O)O[C@@H]1C(OC)=C[C@]23CCCN2CCc2cc4c(cc2[C@H]13)OCO4 [omacetaxine, omacetaxine mepusuccinate]
a: 7.22
